# targetOrTestSystem: T1, human vascular endothelial growth factor receptor-2 Fc chimera (KDR-Fc) (human, UniProt P35968 20-764)
# T1 construct: range 1-764; also called human VEGFR-2; not shown: human IgG1 Fc
# T1 sequence (P35968 20-764 limits assumed, change not shown, form in doubt): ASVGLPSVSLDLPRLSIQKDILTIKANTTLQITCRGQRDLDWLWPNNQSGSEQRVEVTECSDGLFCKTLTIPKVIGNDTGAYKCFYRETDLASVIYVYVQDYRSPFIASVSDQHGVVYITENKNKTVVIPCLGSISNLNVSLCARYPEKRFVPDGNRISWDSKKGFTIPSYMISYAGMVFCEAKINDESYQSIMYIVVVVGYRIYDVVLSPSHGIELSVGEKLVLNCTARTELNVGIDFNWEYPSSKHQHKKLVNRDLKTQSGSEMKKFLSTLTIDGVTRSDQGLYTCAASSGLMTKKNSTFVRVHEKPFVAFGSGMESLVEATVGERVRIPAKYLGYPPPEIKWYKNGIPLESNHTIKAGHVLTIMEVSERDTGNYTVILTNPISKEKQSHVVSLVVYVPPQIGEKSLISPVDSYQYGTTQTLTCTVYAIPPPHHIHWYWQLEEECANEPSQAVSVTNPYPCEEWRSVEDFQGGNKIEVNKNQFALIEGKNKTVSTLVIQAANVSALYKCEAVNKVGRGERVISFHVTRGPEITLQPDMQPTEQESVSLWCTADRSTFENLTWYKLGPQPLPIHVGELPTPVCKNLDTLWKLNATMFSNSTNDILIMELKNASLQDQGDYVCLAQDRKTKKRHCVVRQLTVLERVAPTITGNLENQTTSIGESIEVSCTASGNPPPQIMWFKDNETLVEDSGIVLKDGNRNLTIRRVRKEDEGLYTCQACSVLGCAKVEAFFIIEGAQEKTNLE
# assayInfo: radioactive equilibrium binding, 1 nM KDR-Fc, % of input

binder	Binding to 1 nM KDR, %, %
2′DelB7 PR4 (designed binder) EVVAATPTSLLISWRHPHFPTRYYRITYGETGGNSPVQEFTVPLQPPTATISGLKPGVDYTITVYAVTVGYNNRELLTPISINYRT	32
1′DelA2 PR4 (designed binder) EVVAATPTSLLISWRHPHFPTRYYRITYGETGGNSPVQEFTVPLQPPTATISGLKPGVDYTITVYAVTVAQNGHQLFTPISINYRT	23
2′H4-PR4 (designed binder) VSDVPRDLEVVAATPTSLLISWRHPHFPTRYYRITYGETGGNSPVQEFTVPLQPPTATISGLKPGVDYTITVYAVTVGPNERMLMTPISINYRT	17
3′G10 PR4 (designed binder) EVVAATPTSLLISWRHPHFPTRYYRITYGETGGNSPVQEFTVPLQPPTATISGLKPGVDYTITVYAVTLTHNDHELLTPISINYRT	30
4′A5 PR4 (designed binder) EVVAATPTSLLISWRHPHFPTRYYRITYGETGGNSPVQEFTVPLQPPTATISGLKPGVDYTITVYAVTLAQNDHELLTPISINYRT	16
3′G1 PR4 (designed binder) EVVAATPTSLLISWRHPHFPTRYYRITYGETGGNSPVQEFTVPLQPPTATISGLKPGVDYTITVYAVTLALNGHELFTPISINYRT	19
3A3 PR3 (designed binder) EVVAATPTSLLISWRHPHFPTRYYRITYGETGGNSPVQEFTVPLQPPTATISGLKPGVDYTITVYAVTLAYNGREIITPISINYRT	23
2′Del B4 PR4 (designed binder) EVVAATPTSLLISWRHPHFPTRYYRITYGETGGNSPVQEFTVPLQPPTATISGLKPGVDYTITVYAVTSGHNGHEVMTPISINYRT	31
1′DelH10 PR4 (designed binder) EVVAATPTSLLISWRHPHFPTRYYRITYGETGGNSPVQEFTVPLQPPTATISGLKPGVDYTITVYAVTFAQNDHELLTPISINYRT	17
2′Del F11 PR4 (designed binder) EVVAATPTSLLISWRHPHFPTRYYRITYGETGGNSPVQEFTVPLQPPTATISGLKPGVDYTITVYAVTMGQNDKELITPISINYRT	27
1′DelD2 PR4 (designed binder) EVVAATPTSLLISWRHPHFPTRYYRITYGETGGNSPVQEFTVPLQPPTATISGLKPGVDYTITVYAVTVAKNDHELLTPISINYRT	17
2′DelG5 PR4 (designed binder) EVVAATPTSLLISWRHPHFPTRYYRITYGETGGNSPVQEFTVPLQPPTATISGLKPGVDYTITVYAVTVGQNNHELLTPISINYRT	19
4′D6 PR4 (designed binder) EVVAATPTSLLISWRHPHFPTRYYRITYGETGGNSPVQEFTVPLQPPTATISGLKPGVDYTITVYAVTMAQNDHELMTPISINYRT	14
3′H9 PR4 (designed binder) EVVAATPTSLLISWRHPHFPTRYYRITYGETGGNSPVQEFTVPLQPPTATISGLKPGVDYTITVYAVTHGPYDQVLLTPISINYRT	24
2′DelH4 PR4 (designed binder) EVVAATPTSLLISWRHPHFPTRYYRITYGETGGNSPVQEFTVPLQPPTATISGLKPGVDYTITVYAVTVGPNERMLMTPISINYRT	30
3′D8 PR4 (designed binder) EVVAATPTSLLISWRHPHFPTRYYRITYGETGGNSPVQEFTVPLQPPTATISGLKPGVDYTITVYAVTAGPNDHQLFTPISINYRT	27
3′A7 PR4 (designed binder) EVVAATPTSLLISWRHPHFPTRYYRITYGETGGNSPVQEFTVPLQPPTATISGLKPGVDYTITVYAVTLSDSGHALFTPISINYRT	34
3′D2 PR4 (designed binder) EVVAATPTSLLISWRHPHFPTRYYRITYGETGGNSPVQEFTVPLQPPTATISGLKPGVDYTITVYAVTVESNGHALFVPISINYRT	19

These data points were gathered from patent US20120283184A1.
